Hey, just so you know, these numbers are from patent US9512107B2.

System: U87MG pLVX-IDH2 R140Q-neo cells
procedure_summary: U87MG pLVX-IDH2 R140Q-neo cell based assay, 2-HG in media by LC-MS at 48 hours
experimental_context: Homo sapiens, U-87 MG
pIC50: −log10 of the molar value.
value_kind: pIC50

Sample records with pIC50:
[[record]]
molecule = "FC(F)(F)c1cc(Nc2nc(NC3CCOC3)nc(-c3cccc(C(F)(F)F)n3)n2)ccn1 (centres unmarked)"
result = "> 7.00"

[[record]]
molecule = "CC(C)Nc1nc(Nc2ccnc(C(F)(F)F)c2)nc(-c2cccc(C(C)(F)F)n2)n1"
result = "> 7.00"


Give one value of pIC50 per listed molecule.
1. CC(C)Nc1nc(Nc2cncc(C(F)(F)F)c2)nc(-c2nccc(C(F)(F)F)n2)n1
2. CC(C)Nc1nc(Nc2ccccc2)nc(-c2cc(C(F)(F)F)ccn2)n1
3. CC1(Nc2nc(Nc3ccnc(C(F)(F)F)c3)nc(-c3cccc(C(F)(F)F)n3)n2)CC1
4. CC(C)Nc1nc(Nc2cccc(F)c2)nc(-c2c(F)cccc2F)n1
5. CNc1cc(Nc2nc(NC(C)C)nc(-c3ccccc3)n2)ccn1

Data returned:
1: > 7.00; 2: 6.00 to 7.00; 3: > 7.00; 4: > 7.00; 5: 6.00 to 7.00

Data request: Supply pIC50 value. Item: "CCOC(=O)Nc1nc(Nc2ccccc2)nc(-c2ccccc2)n1"
Data returned: > 7.00
